# testName: yeast display, Sf9 membrane polyspecificity reagent, FACS + sequencing; frameworks hold sequencing errors

[
  {
    "residueString": "QVQLVESGGGLVQAGGSLRLSCAASGGTFVGYAMGWSRQAPGKERELVASITRRGGNTYYADSVKVRFTISRDNATNTFYLQMNSLNPEDTAVYYCANALVVQYGRYTGHPYDYWGQGTQVTVSS",
    "polyreactivity (PSR sort gate)": "high polyreactivity"
  },
  {
    "residueString": "QVQLVESGGGLVQAGGSLRLSCAASGFIFGSNAMGWYRQAPGKERELVAAIDSSGGRTYYADSVKGRFTISRDNAKNTVYLQMISLKPEDTAVYYCNVYRWSQLFEYDYWGQGTQVTVSS",
    "polyreactivity (PSR sort gate)": "high polyreactivity"
  },
  {
    "residueString": "QVQLVESGGGLVQAGGSLRLSCAASGFTFTTYVMGSYRQAPGKERELVAAISRRGTSTRYADSVKGRFTISRDNAKNTVYLQMNSLKPEDTAVYYCAADRPYSIVPYDYWGQGTQVTVSS",
    "polyreactivity (PSR sort gate)": "high polyreactivity"
  },
  {
    "residueString": "QVQLVESGGGLVQAGGSLSLSCAASGSIFNPYGKGWYRQAPGKERELVAAITSSGGDTYYADSVKGRFTISRDNAKNTVYLQMNSLKPEDTAVYYCAATGLPGYYAYDYWGHGTQVTVSS",
    "polyreactivity (PSR sort gate)": "low polyreactivity"
  },
  {
    "residueString": "QVQLVESGGGLVQAGGSLRLSCAASGIIFLRNTMGWYRQAPGKERELVASISRRGGSTYYADSVKGRFTISRDNAKNTVYLQMNSLKPEDTAVYYCNKRSLEKGDYWGQGTQVTVTS",
    "polyreactivity (PSR sort gate)": "high polyreactivity"
  },
  {
    "residueString": "QVQLVESGGGLVQAGGSLRLSCAASGRIFYRYAMGWYRQAPGKERELVAAISSAGSTNYADSVKGRFTISRDNAKNTVYLQMNSLKPEDTAVYYCNTVTRWVGKLEYWGQGTQVTVSS",
    "polyreactivity (PSR sort gate)": "high polyreactivity"
  },
  {
    "residueString": "QVQLVESGGGLVQAGGSLRLSCAASGITFKYYVMGWYRQAPGKERELVAAISYDGGSTYYADSVKGRFTISRDNAKNTVYLQMNSLKPEDTAVYYCAAPVWIDGDESGYEYDYWGQGTQVTVSS",
    "polyreactivity (PSR sort gate)": "low polyreactivity"
  },
  {
    "residueString": "QVQLVESGGGLVQAGGSLRLSCAASGGTFSFYTMVWYRQAPGKERELVAAIDSTGRTNYADSVKGRFTISRDNAKNTVYLQMNSLKPEDTAVYYCAAGPPRADYDYWGQGTQVTVSS",
    "polyreactivity (PSR sort gate)": "low polyreactivity"
  },
  {
    "residueString": "QVQLVESGGRLVQAGGSLRLRCAASGRTFYWNGMGWYRQSPGKERELVAAITVSVGSTYFADSVKGRFTISRDNAKNTVSLQMNSLKPEDTAVYYCNADAYYEARIWSYRKGDYWGQGTQVTVSS",
    "polyreactivity (PSR sort gate)": "low polyreactivity"
  },
  {
    "residueString": "QVQLVESGGGLVQAGGSLRLSCAASGSTFDANAMGWYRQAPGKERELVAAISYSDGTTYYADSVKGRFTISRDNAKNTVYLQMNSLKPEDTAVYYCAAELFTYDGEEDYWGQGTQVTVSS",
    "polyreactivity (PSR sort gate)": "high polyreactivity"
  },
  {
    "residueString": "QVQLVESGGGLVQAGGSLRLSCAASGRTFWWYAMGWYRQAPGKERALVAGISSGGSTYYADSVKGRCTISRDNAKKTVYLLMNSRKPEETAVYYCAKTYWYPWRASLWHEYDYWGQGTQVTVSS",
    "polyreactivity (PSR sort gate)": "low polyreactivity"
  }
]
